- assay_remarks: in vivo
- condition_info: BALB/c, mouse, plasma, iv, 0.2 mg/kg
experimental_readout: clearance (mL/min/kg)

Here are 2 compounds together with their reported answers.
INSERT INTO results (smiles_str, experimental_readout, readout_number) VALUES
  ('COc1cccc(F)c1C(=O)Nc1c[nH]nc1C(=O)NC1CCNCC1', 'clearance', 38),
  ('O=C(NC1CCCCC1)c1n[nH]cc1NC(=O)c1c(F)cccc1F', 'clearance', 65);

I. O=C(NCC1CC1)c1n[nH]cc1NC(=O)c1c(F)cccc1F
II. O=C(N[C@H]1CC[C@H](O)CC1)c1n[nH]cc1NC(=O)c1c(F)cccc1F
-- ask Of I and II , which one carries the higher reported clearance? In your reply, give the label of the chosen option.
-- reply I
(I: 66 mL/min/kg, II: 42 mL/min/kg)

1. O=C(NC1CCNCC1)c1n[nH]cc1NC(=O)c1c(F)cc(F)cc1F
2. Cl.O=C(N[C@H]1CCCNC1)c1n[nH]cc1NC(=O)c1c(F)cccc1F
-- ask Of 1 and 2 , which one carries the higher reported clearance? In your reply, give the label of the chosen option.
-- reply 1

====

Cyclin-dependent kinase 1/cyclin B1 (Homo sapiens) measurements of IC50, listed per entry.
Sequence (P06493 whole entry): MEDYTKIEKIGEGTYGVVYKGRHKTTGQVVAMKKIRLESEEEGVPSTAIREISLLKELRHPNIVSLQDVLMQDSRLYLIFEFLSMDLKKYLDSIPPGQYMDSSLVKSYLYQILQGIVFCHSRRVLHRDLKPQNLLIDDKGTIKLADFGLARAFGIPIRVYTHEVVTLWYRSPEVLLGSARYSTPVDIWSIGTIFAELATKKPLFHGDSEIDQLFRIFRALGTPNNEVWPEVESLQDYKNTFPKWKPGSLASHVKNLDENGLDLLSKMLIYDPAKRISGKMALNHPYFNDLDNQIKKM
Sequence (P14635 whole entry, further chain): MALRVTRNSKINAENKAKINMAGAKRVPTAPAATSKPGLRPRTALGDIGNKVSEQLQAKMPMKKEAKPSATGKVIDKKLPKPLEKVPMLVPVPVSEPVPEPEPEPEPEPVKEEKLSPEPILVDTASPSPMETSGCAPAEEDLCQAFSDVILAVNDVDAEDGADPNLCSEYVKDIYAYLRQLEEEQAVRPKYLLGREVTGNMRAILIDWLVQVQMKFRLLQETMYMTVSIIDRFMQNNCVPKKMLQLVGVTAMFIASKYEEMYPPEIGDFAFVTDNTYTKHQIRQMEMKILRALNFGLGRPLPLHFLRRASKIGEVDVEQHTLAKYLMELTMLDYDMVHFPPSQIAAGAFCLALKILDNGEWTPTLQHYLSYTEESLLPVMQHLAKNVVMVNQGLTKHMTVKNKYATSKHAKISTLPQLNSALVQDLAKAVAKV
experimental_readout: IC50 (nM)

Here are 3 molecules together with their reported answers.
INSERT INTO assay_data (smiles_str, experimental_readout, readout_number) VALUES
  ('O=C(N[C@H]1CC[C@H](O)CC1)c1n[nH]cc1NC(=O)c1c(F)cccc1F', 'IC50', 45),
  ('O=C(Nc1ccc(F)cc1)c1n[nH]cc1NC(=O)c1c(F)cccc1F', 'IC50', 10),
  ('O=C(NC1CCCCC1)c1n[nH]cc1NC(=O)c1c(F)cccc1F', 'IC50', 55);

A. Cl.O=C(N[C@H]1CCCNC1)c1n[nH]cc1NC(=O)c1c(F)cccc1F
B. N[C@H]1CC[C@H](NC(=O)c2n[nH]cc2NC(=O)c2c(F)cccc2F)CC1
-- ask Of A and B , which one carries the higher reported IC50? In your reply, give the label of the chosen option.
-- reply B

====

- assay_remarks: in vivo
- condition_info: BALB/c, mouse, plasma, iv, 0.2 mg/kg
experimental_readout: clearance (mL/min/kg)

INSERT INTO measurements (smiles_str, experimental_readout, readout_number) VALUES
  ('O=C(NC1CCNCC1)c1n[nH]cc1NC(=O)c1c(F)cccc1Cl', 'clearance', 56),
  ('O=C(Nc1ccc(F)cc1)c1n[nH]cc1NC(=O)c1c(F)cccc1F', 'clearance', 40);

1. N[C@H]1CC[C@H](NC(=O)c2n[nH]cc2NC(=O)c2c(F)cccc2F)CC1
2. O=C(NC1CCNCC1)c1n[nH]cc1NC(=O)c1c(F)cccc1F
-- ask // select label with min value of measured clearance from [ 1 , 2 ] In your reply, give the label of the chosen option.
-- reply 2
